system: MDA-MB-435; assay: NCI tumour cell line growth inhibition, 48 h
recorded endpoint: TGI

Known TGI results, listed for orientation:
Cc1cc(S(=O)(=O)N=C2Nc3cccc4cccc(c34)N2)c(S)cc1Cl :: > 100 µM
COc1ccc2[nH]c(C(=O)OCc3ccc4c(Cl)cc(Cl)c(O)c4n3)cc2c1 :: 2.45 µM
C/C(=C\CSCC(N)C(=O)O)CC/C=C(\C)CNc1ccccc1 (stereo unspecified) :: > 100 µM
O=c1/c(=N\Nc2ccccc2)c2cccc3ccc4cccc1c4c32 :: > 100 µM
O=P(O)(O)OCC1OC(n2cnc3c(NCc4ccccc4)ncnc32)C(O)C1O (stereo unspecified) :: > 100 µM
C=C(C)[C@H]1CC23C(=O)[C@@](C)(C[C@H]2C1(C)C)C(=O)C(C(=O)C(C)C)=C3O :: 31.3 µM

# map each compound to its TGI
1. CNC(=O)c1cncc(/C=C/c2ccccc2Cl)c1
2. COc1cc(/C=C2\CCCC3=C2N=C2SC(C)=NN2C3c2cc(OC)c(OC)c(OC)c2)cc(OC)c1OC (stereo unspecified)
3. C[N+](C)=c1ccc2nc3c(cc(NCCCNc4cc5oc6cc(=[N+](C)C)ccc-6nc5c5ccccc45)c4ccccc43)oc-2c1
4. CCOC(=O)c1c(-c2ccccc2)c(OC)cn1C
5. O=C1N=C(Nc2nc(-c3csc(NC4=NC(=O)/C(=C\c5ccccc5)S4)n3)cs2)S/C1=C/c1ccccc1
6. Cc1nc2c(=O)n(-c3ccccc3)c(=O)n(-c3ccccc3)c2o1
7. NC(=O)C1CCN(Cc2c(Cl)c(Cl)c(CN3CCC(C(N)=O)CC3)c(Cl)c2Cl)CC1

1. > 25 µM
2. > 100 µM
3. 3.29 µM
4. > 10 µM
5. > 50 µM
6. > 100 µM
7. > 100 µM

# map each compound to its TGI
1. CCOC(=O)c1c(SCc2cc(=O)[nH]c(=O)[nH]2)n(-c2ccccc2)c(=S)n(-c2ccccc2)c1=O
2. COc1ccc([C@]23CCC4(OCC(C)(C)CO4)[C@H]4CON(O[C@H](O[C@@H]5CCCCC5C(C)(C)c5ccccc5)C2)[C@@H]43)cc1OC (stereo partly specified)
3. COc1ccc2c(c1OC)C(=O)N1C2=Cc2c(cc3c(c2OC)OCO3)CC1N(C)C (stereo unspecified)
4. O=C(/C=C/C12c3ccccc3C(c3ccccc31)C1C(=O)NC(=O)C12)c1ccccc1 (stereo unspecified)
5. NC(=O)NN=C1Cc2ccccc2C1

1: > 100 µM; 2: > 100 µM; 3: > 100 µM; 4: 5.9 µM; 5: > 100 µM

# map each compound to its TGI
1. CC(C)(C)OC(=O)Nc1ccc2c(c1)C(NC(=O)Nc1cccc(C#N)c1)CC(C)(C)O2 (stereo unspecified)
2. N#Cc1cccc(C2C3=C(COC3=O)N(CCO)c3cc4c(cc32)OCO4)c1 (stereo unspecified)
3. CS(=O)(=O)N(c1cc(-c2ccc3ncnc(Nc4ccc(F)c(Cl)c4)c3c2)cnc1Cl)S(C)(=O)=O

["15.2 µM", "1.03 µM", "17.2 µM"]
